Test: Cmax in rat plasma at 1 mg/kg, po
Assay type: ADME, organism-based
Parameters: dose 1 mg/kg, route po
recorded-metric: Cmax (ng/mL)
Please give a number only; it is taken to be in ng/mL.

CCN1C(=O)C(=O)N([C@H]2CCCN(C[C@H]3COc4ccccc4O3)C2)C1=O ... 209

Query block: GET /values?readout=Cmax&item= `Oc1cccc([C@H]2CCCN(C[C@H]3COc4ccccc4O3)C2)c1`
Result block: 2

---

hepatocyte CLint at 1 µM by entry:
Assay: Clearance in rat hepatocytes assessed per million cells at 1 uM
Type: ADME, cell-based, Hepatocyte
Settings: read-out: CLH
Express your answer in µL/min/1e6 cells, writing the number without its unit.

Query block: // hepatocyte CLint at 1 µM lookup, key: `Oc1cccc([C@H]2CCCN(C[C@H]3COc4ccccc4O3)C2)c1`
Result block: 682

Query block: // query hepatocyte CLint at 1 µM value for entry `COCc1cccnc1N1CCN(C[C@H]2COc3ccccc3O2)CC1`
Result block: 135

---

Assay: Clearance in human hepatocytes assessed per million cells at 1 uM
Assay type: ADME, cell-based, Hepatocyte
Conditions: read-out: CLH
recorded-metric: hepatocyte CLint at 1 µM (µL/min/1e6 cells)
Respond numerically; units are µL/min/1e6 cells and should not be typed.

COCc1cccnc1N1CCN(C[C@H]2COc3ccccc3O2)CC1 ... 38.7

Moving on to the next compound.
Query block: So what's the measured hepatocyte CLint at 1 µM for this one? `Oc1cccc([C@H]2CCCN(C[C@H]3COc4ccccc4O3)C2)c1`
Result block: 294

---

Measured Tmax, listed per entry.
Test: Tmax in rat plasma at 1 mg/kg, po
Type: ADME, organism-based
Report the value in min with no unit label.

CCN1C(=O)C(=O)N([C@H]2CCCN(C[C@H]3COc4ccccc4O3)C2)C1=O ... 30

Now look at this entry.
Query block: Recorded Tmax for `Oc1cccc([C@H]2CCCN(C[C@H]3COc4ccccc4O3)C2)c1` , please?
Result block: 30

---

Form field: solubility at 1 µM (one value per entry).
Assay: Solubility of compound in pH 7.4 buffer at 1 uM
Format: physicochemical
Response body: numeric value in µM, unit text excluded.

Oc1cccc([C@H]2CCCN(C[C@H]3COc4ccccc4O3)C2)c1 ... 18

Okay, next one:
Query block: For the molecule COCc1cccnc1N1CCN(C[C@H]2COc3ccccc3O2)CC1 [ORM-13070] , what solubility at 1 µM is on record?
Result block: 176

---

Assay: Unbound fraction in rat brain at 1 mg/kg, po by rapid equilibrium dialysis method
Assay type: ADME, organism-based
recorded-metric: fraction unbound
// print number alone

Query block: What value of fraction unbound has been reported for the following compound? `CCN1C(=O)C(=O)N([C@H]2CCCN(C[C@H]3COc4ccccc4O3)C2)C1=O`
Result block: 0.096

---

Assay: Cmax in rat brain at 1 mg/kg, po
Assay type: ADME, organism-based
Set-up: dose 1 mg/kg, route po
recorded-metric: Cmax
Returns: string containing the numeric result and its unit.

CCN1C(=O)C(=O)N([C@H]2CCCN(C[C@H]3COc4ccccc4O3)C2)C1=O ... 72 ng/g

Shifting focus to the compound that follows.
Query block: Report Cmax for `Oc1cccc([C@H]2CCCN(C[C@H]3COc4ccccc4O3)C2)c1` please.
Result block: 3 ng/g

---

Test: Unbound fraction in rat plasma at 1 mg/kg, po by rapid equilibrium dialysis method
Format: ADME, organism-based
recorded-metric: fraction unbound
Lab note: jot down the number only; don't add units.

Query block: Field request: fraction unbound | item: `CCN1C(=O)C(=O)N([C@H]2CCCN(C[C@H]3COc4ccccc4O3)C2)C1=O`
Result block: 0.078

---

This section presents molecules with their documented Tmax values.
Test: Tmax in rat brain at 1 mg/kg, po
Type: ADME, organism-based

Oc1cccc([C@H]2CCCN(C[C@H]3COc4ccccc4O3)C2)c1 ... 6 h

Now let's try a different one.
Query block: Need Tmax, item `CCN1C(=O)C(=O)N([C@H]2CCCN(C[C@H]3COc4ccccc4O3)C2)C1=O`
Result block: 0.5 h

---

Experiment: Permeability across apical to basolateral side in human Caco-2 cells
Type: ADME, cell-based
Settings: read-out: permeability
Quick reference for Papp A→B among some compounds
Write the number in ×10⁻⁶ cm/s without appending the unit.

Oc1cccc([C@H]2CCCN(C[C@H]3COc4ccccc4O3)C2)c1 ... 16.1

For the next question, use this compound.
Query block: For the compound COCc1cccnc1N1CCN(C[C@H]2COc3ccccc3O2)CC1 [ORM-13070] , what Papp A→B is on record?
Result block: 44.9

---

Experiment: Unbound brain-to-plasma concentration ratio in rat at 1 mg/kg, po
Type: ADME, organism-based
Conditions: read-out: K(p,uu,brain)
recorded-metric: Kp uu
Enter the number alone.

Query block: # lookup: Kp uu of `CCN1C(=O)C(=O)N([C@H]2CCCN(C[C@H]3COc4ccccc4O3)C2)C1=O`
Result block: 0.4

---

Assay: in vitro
Settings: human, Caco-2
Description: Efflux ratio of permeability across basolateral to apical side over apical to basolateral side in human Caco-2 cells
recorded-metric: efflux ratio
Could you keep your reply to the number by itself?

Oc1cccc([C@H]2CCCN(C[C@H]3COc4ccccc4O3)C2)c1 ... 1.5

Proceed to the following item.
Query block: I would be grateful if you could share the reported efflux ratio for `COCc1cccnc1N1CCN(C[C@H]2COc3ccccc3O2)CC1` .
Result block: 1
